Biological target: nsp14 methyltransferase from SARS-CoV-2 (Severe acute respiratory syndrome coronavirus 2)
Assay: Nsp14 MTase activity inhibition in vitro (EchoMS assay)
Type: biochemical
Details: recombinant nsp14 protein expressed in E. coli; dose-response curve
measurement.label: IC50

- Cc1noc(-c2ccc([N+](=O)[O-])cc2)c1CSC[C@H]1O[C@@H](n2ccc3c(N)ncnc32)[C@H](O)[C@@H]1O [Compound 93c]: 100 to 500 nM
- Cc1noc(-c2ccccc2)c1CSC[C@H]1O[C@@H](n2nc(-c3cccc(C#N)c3)c3c(N)ncnc32)[C@H](O)[C@@H]1O [Compound 220b]: 100 to 500 nM
- Cc1noc(-c2ccc(F)cc2)c1CSC[C@H]1O[C@@H](n2ccc3c(N)ncnc32)[C@H](O)[C@@H]1O [Compound 97c]: 100 to 500 nM
- Cc1nsc(-c2ccccc2)c1CSC[C@H]1O[C@@H](n2cc(-c3ccc(C#N)cc3)c3c(N)ncnc32)[C@H](O)[C@@H]1O [Compound 231b]: 100 to 500 nM
- Cc1noc(-c2ccc3c(c2)OCO3)c1CSC[C@H]1O[C@@H](n2ccc3c(N)ncnc32)[C@H](O)[C@@H]1O [Compound 96c]: 10 to 30 nM
- Cc1csc(-c2ccccc2)c1CSC[C@H]1O[C@@H](n2ccc3c(N)ncnc32)[C@H](O)[C@@H]1O [Compound 53c]: 100 to 500 nM
